Tested on: Strep. agalactiae SPA1
EXPERIMENT DESCRIPTION: MIC against veterinary bacteria in vitro
APPLIED CONDITIONS: Streptococcus agalactiae, SPA1, 18 h
Would you kindly list MIC for each of these molecules?
Record the value in µg/mL, omitting the unit from your answer.

Query block: Give its MIC value. Item: C/C(=C\c1ncc(-c2ccccc2[N+](=O)[O-])o1)C[C@@H]1OC[C@H](C[C@@H]2O[C@H]2[C@@H](C)[C@H](C)O)[C@@H](O)[C@H]1O
Result block: 2.5

Query block: Subsequent entry: C/C(=C\c1ncc(CCCCCCCCO)o1)C[C@@H]1OC[C@H](C[C@@H]2O[C@H]2[C@@H](C)[C@H](C)O)[C@@H](O)[C@H]1O
Result block: 10

Query block: Then this molecule: C/C(=C\c1ncc(-c2ccc([S+](C)[O-])cc2)o1)C[C@@H]1OC[C@H](C[C@@H]2O[C@H]2[C@@H](C)[C@H](C)O)[C@@H](O)[C@H]1O (some centres unmarked)
Result block: 2.5

Query block: Moving on to C/C(=C\c1ncc(-c2cccc([S+](C)[O-])c2)o1)C[C@@H]1OC[C@H](C[C@@H]2O[C@H]2[C@@H](C)[C@H](C)O)[C@@H](O)[C@H]1O (some centres unmarked)
Result block: 2.5

Query block: Repeat for the following molecule: C/C(=C\c1cc(C)on1)C[C@@H]1OC[C@H](C[C@@H]2O[C@H]2[C@@H](C)[C@H](C)O)[C@@H](O)[C@H]1O
Result block: 10

###

Tested on: Staph. aureus 152 (pen. sens)
EXPERIMENT DESCRIPTION: MIC against veterinary bacteria in vitro
APPLIED CONDITIONS: Staphylococcus aureus, 18 h
READOUT KIND: MIC (µg/mL)
Only the number, expressed in µg/mL, is required.

Query block: Need MIC of C/C(=C\c1ncc(-c2cccc(S(C)(=O)=O)c2)o1)C[C@@H]1OC[C@H](C[C@@H]2O[C@H]2[C@@H](C)[C@H](C)O)[C@@H](O)[C@H]1O [Example 23] , thanks.
Result block: 2.5

Query block: Now the compound C/C(=C\c1ncc(-c2cccc([S+](C)[O-])c2)o1)C[C@@H]1OC[C@H](C[C@@H]2O[C@H]2[C@@H](C)[C@H](C)O)[C@@H](O)[C@H]1O (stereo partly drawn) [Example 25]
Result block: 10

Query block: Try C/C(=C\c1nc(-c2ccccc2)c(-c2ccccc2)o1)C[C@@H]1OC[C@H](C[C@@H]2O[C@H]2[C@@H](C)[C@H](C)O)[C@@H](O)[C@H]1O [Example 41, 4,5-Diphenyl-2-(1-normon-2-yl)oxazole A] next.
Result block: 40

###

Tested on: E. coli NCTC 10418
EXPERIMENT DESCRIPTION: MIC against veterinary bacteria in vitro
APPLIED CONDITIONS: Escherichia coli, NCTC10418, 18 h
Give measured MIC for each item. Keep answers brief.

Query block: Need MIC of COC(=O)c1ccc(-c2cnc(/C=C(\C)C[C@@H]3OC[C@H](C[C@@H]4O[C@H]4[C@@H](C)[C@H](C)O)[C@@H](O)[C@H]3O)o2)cc1 [Example 16] , thanks.
Result block: > 80 µg/mL

Query block: Would you mind doing C/C(=C\c1ncc(-c2ccc([N+](=O)[O-])cc2)o1)C[C@@H]1OC[C@H](C[C@@H]2O[C@H]2[C@@H](C)[C@H](C)O)[C@@H](O)[C@H]1O [Example 3] as well?
Result block: > 80 µg/mL

Query block: Another molecule to check: COc1ccc(-c2cnc(/C=C(\C)C[C@@H]3OC[C@H](C[C@@H]4O[C@H]4[C@@H](C)[C@H](C)O)[C@@H](O)[C@H]3O)o2)cc1 [Example 4]
Result block: > 80 µg/mL

Query block: Moving on to C/C(=C\c1ncc(CCCCCCCC(=O)O)o1)C[C@@H]1OC[C@H](C[C@@H]2O[C@H]2[C@@H](C)[C@H](C)O)[C@@H](O)[C@H]1O [Example 12]
Result block: > 40 µg/mL

Query block: Entry C/C(=C/c1ncc(-c2ccccc2)o1)C[C@@H]1OC[C@H](C[C@@H]2O[C@H]2[C@@H](C)[C@H](C)O)[C@@H](O)[C@H]1O [Example 2] please
Result block: > 80 µg/mL

Query block: What about C/C(=C\c1cc(-c2ccccc2)on1)C[C@@H]1OC[C@H](C[C@@H]2O[C@H]2[C@@H](C)[C@H](C)O)[C@@H](O)[C@H]1O [Example 34, 3-(1-Normon-2-yl)-5-phenylisoxazole A] ?
Result block: > 80 µg/mL

###

System: Ps. aeruginosa NCTC 10662
EXPERIMENT DESCRIPTION: MIC against human bacteria in vitro
Type: cell-based
APPLIED CONDITIONS: Pseudomonas aeruginosa, NCTC10662; Ps. aeruginosa NCTC 10662; 5% chocolated horse blood agar, 18 hours; read-out: MIC
Please go through the items and note down their MIC.

Query block: Please give the measured MIC for this compound: COc1ccc(-c2cnc(/C=C(\C)C[C@@H]3OC[C@H](C[C@@H]4O[C@H]4[C@@H](C)[C@H](C)O)[C@@H](O)[C@H]3O)o2)cc1
Result block: > 100 µg/mL

Query block: Try this compound next: C/C(=C\c1ncc(-c2cccc(S(C)(=O)=O)c2)o1)C[C@@H]1OC[C@H](C[C@@H]2O[C@H]2[C@@H](C)[C@H](C)O)[C@@H](O)[C@H]1O
Result block: > 64 µg/mL

Query block: What do you get for C/C(=C\c1ncc(-c2ccc(C#N)cc2)o1)C[C@@H]1OC[C@H](C[C@@H]2O[C@H]2[C@@H](C)[C@H](C)O)[C@@H](O)[C@H]1O ?
Result block: > 128 µg/mL

Query block: Please answer likewise for C/C(=C\c1ncc(-c2cccc(C#N)c2)o1)C[C@@H]1OC[C@H](C[C@@H]2O[C@H]2[C@@H](C)[C@H](C)O)[C@@H](O)[C@H]1O
Result block: > 50 µg/mL

Query block: // repeat for C/C(=C\c1nc(C)c(-c2ccccc2)o1)C[C@@H]1OC[C@H](C[C@@H]2O[C@H]2[C@@H](C)[C@H](C)O)[C@@H](O)[C@H]1O and report
Result block: > 100 µg/mL

Query block: Try the compound C/C(=C\c1ncc(CCCCCCCCO)o1)C[C@@H]1OC[C@H](C[C@@H]2O[C@H]2[C@@H](C)[C@H](C)O)[C@@H](O)[C@H]1O
Result block: > 128 µg/mL

Query block: Entry to check: C/C(=C\c1ncc(-c2cccc([N+](=O)[O-])c2)o1)C[C@@H]1OC[C@H](C[C@@H]2O[C@H]2[C@@H](C)[C@H](C)O)[C@@H](O)[C@H]1O
Result block: > 128 µg/mL

Query block: Try this compound too: C/C(=C\c1ncc(-c2ccc([N+](=O)[O-])cc2)o1)C[C@@H]1OC[C@H](C[C@@H]2O[C@H]2[C@@H](C)[C@H](C)O)[C@@H](O)[C@H]1O
Result block: > 100 µg/mL

Query block: Same lookup for C/C(=C\c1cc(-c2ccccc2)on1)C[C@@H]1OC[C@H](C[C@@H]2O[C@H]2[C@@H](C)[C@H](C)O)[C@@H](O)[C@H]1O , please.
Result block: > 128 µg/mL

Query block: Now consider C/C(=C\c1ncc(-c2ccc(C=O)cc2)o1)C[C@@H]1OC[C@H](C[C@@H]2O[C@H]2[C@@H](C)[C@H](C)O)[C@@H](O)[C@H]1O and answer again.
Result block: > 128 µg/mL

Query block: Please give the result for CSc1cccc(-c2cnc(/C=C(\C)C[C@@H]3OC[C@H](C[C@@H]4O[C@H]4[C@@H](C)[C@H](C)O)[C@@H](O)[C@H]3O)o2)c1 too.
Result block: > 128 µg/mL

Query block: Queued: COC(=O)c1ccc(-c2cnc(/C=C(\C)C[C@@H]3OC[C@H](C[C@@H]4O[C@H]4[C@@H](C)[C@H](C)O)[C@@H](O)[C@H]3O)o2)cc1
Result block: > 64 µg/mL

Query block: Next compound up: C/C(=C\c1ncc(-c2ccc(C(=O)O)cc2)o1)C[C@@H]1OC[C@H](C[C@@H]2O[C@H]2[C@@H](C)[C@H](C)O)[C@@H](O)[C@H]1O
Result block: > 64 µg/mL

Query block: Repeat with C/C(=C\c1ncc(-c2ccc(S(C)(=O)=O)cc2)o1)C[C@@H]1OC[C@H](C[C@@H]2O[C@H]2[C@@H](C)[C@H](C)O)[C@@H](O)[C@H]1O
Result block: > 128 µg/mL

Query block: Subsequent entry: C/C(=C\c1ncc(-c2ccc([S+](C)[O-])cc2)o1)C[C@@H]1OC[C@H](C[C@@H]2O[C@H]2[C@@H](C)[C@H](C)O)[C@@H](O)[C@H]1O (stereo partly drawn)
Result block: > 128 µg/mL

Query block: What do we get for C/C(=C\c1nc(C)c(C)o1)C[C@@H]1OC[C@H](C[C@@H]2O[C@H]2[C@@H](C)[C@H](C)O)[C@@H](O)[C@H]1O ?
Result block: > 100 µg/mL

Query block: Thanks! And C/C(=C\c1ncc(-c2cccc([S+](C)[O-])c2)o1)C[C@@H]1OC[C@H](C[C@@H]2O[C@H]2[C@@H](C)[C@H](C)O)[C@@H](O)[C@H]1O (stereo partly drawn) ?
Result block: > 128 µg/mL

Query block: Can you check C/C(=C\c1nc(-c2ccccc2)c(-c2ccccc2)o1)C[C@@H]1OC[C@H](C[C@@H]2O[C@H]2[C@@H](C)[C@H](C)O)[C@@H](O)[C@H]1O next?
Result block: > 100 µg/mL

Query block: Would you kindly repeat that for C/C(=C\c1ncc(C)o1)C[C@@H]1OC[C@H](C[C@@H]2O[C@H]2[C@@H](C)[C@H](C)O)[C@@H](O)[C@H]1O ?
Result block: > 128 µg/mL

Query block: What about C/C(=C\c1ncc(-c2ccc(Br)cc2)o1)C[C@@H]1OC[C@H](C[C@@H]2O[C@H]2[C@@H](C)[C@H](C)O)[C@@H](O)[C@H]1O ?
Result block: > 128 µg/mL

Query block: Moving on to the next compound: C/C(=C\c1ncc(-c2ccccc2[N+](=O)[O-])o1)C[C@@H]1OC[C@H](C[C@@H]2O[C@H]2[C@@H](C)[C@H](C)O)[C@@H](O)[C@H]1O
Result block: > 128 µg/mL
